test: Unbound brain to plasma ratio in Sprague-Dawley rat at 0.2 mg/kg, iv administered as cassette dose by LC-MS/MS analysis; format: ADME, organism-based; details: brain and plasma, read-out: K(p,uu,brain)
quantityKind: Kp uu
No unit in the answer, please; the number alone is enough.

Here are 3 compounds together with their reported answers.
NC(=O)c1cc(-c2ccc(F)cc2)n2nc(COc3ccnc(C(F)(F)F)c3)cc2n1 ... 0.86
COc1ccc(-c2cc(C(N)=O)nc3cc(COc4cnc(C)nc4)sc23)cc1 ... 0.49
Cc1ccc(OCc2cc3nc(C(N)=O)cc(-c4ccc(F)cc4)c3s2)cn1 ... 0.2

Now look at this entry.
Annotate the compound NC(=O)c1cc(-c2ccc(F)cc2)n2nc(CCc3ccnc(C(F)(F)F)c3)cc2n1 with its measured Kp uu.
0.59

* * *

experiment: Ratio of AUC in brain to plasma of Sprague-Dawley rat at 10 mg/kg, ip by LC-MS/MS analysis; format: ADME, organism-based; conditions: brain and plasma, read-out: Ratio AUC
quantityKind: Kp
Field format: numeric only.

Consider the molecule C[C@@H]1CN(Cc2cc3nc(C(N)=O)cc(-c4ccc(F)cc4)c3s2)C[C@H](C)O1 and give its recorded Kp.
5.67

* * *

target: Metabotropic glutamate receptor 7 (Homo sapiens, UniProt Q14831); assay: Negative allosteric modulation of mGlu7R (unknown origin)
Sequence (Q14831 whole entry): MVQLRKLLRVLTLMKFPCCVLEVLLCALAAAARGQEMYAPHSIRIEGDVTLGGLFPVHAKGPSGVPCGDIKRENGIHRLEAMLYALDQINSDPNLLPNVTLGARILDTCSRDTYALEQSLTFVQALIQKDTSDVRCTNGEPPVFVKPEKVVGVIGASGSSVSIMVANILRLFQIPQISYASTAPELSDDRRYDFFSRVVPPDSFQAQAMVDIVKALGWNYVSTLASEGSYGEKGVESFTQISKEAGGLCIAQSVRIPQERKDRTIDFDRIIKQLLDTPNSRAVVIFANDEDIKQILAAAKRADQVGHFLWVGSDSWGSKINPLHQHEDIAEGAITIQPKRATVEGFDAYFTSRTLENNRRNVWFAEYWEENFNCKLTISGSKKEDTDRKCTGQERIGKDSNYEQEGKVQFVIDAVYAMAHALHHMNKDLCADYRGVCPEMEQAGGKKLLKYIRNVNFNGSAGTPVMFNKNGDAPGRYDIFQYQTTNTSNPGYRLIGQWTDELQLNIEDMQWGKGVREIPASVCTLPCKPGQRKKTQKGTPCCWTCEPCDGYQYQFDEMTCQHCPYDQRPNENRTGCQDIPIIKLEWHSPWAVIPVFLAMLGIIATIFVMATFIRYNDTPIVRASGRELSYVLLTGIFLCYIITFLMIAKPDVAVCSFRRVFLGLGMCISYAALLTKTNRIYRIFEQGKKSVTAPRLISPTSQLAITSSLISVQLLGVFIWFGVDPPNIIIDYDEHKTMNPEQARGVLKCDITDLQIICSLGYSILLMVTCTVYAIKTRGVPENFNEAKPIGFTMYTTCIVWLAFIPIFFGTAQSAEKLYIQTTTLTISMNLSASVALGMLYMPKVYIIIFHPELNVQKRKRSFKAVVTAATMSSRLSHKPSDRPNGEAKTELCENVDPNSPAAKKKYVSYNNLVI
quantityKind: IC50

For the compound Cn1ccc(COc2cnc(C(N)=O)cc2-c2ccc(F)cc2)n1 , report IC50.
> 30 µM

* * *

biological target: Metabotropic glutamate receptor 2 (Rattus norvegicus); assay: Negative allosteric modulation of rat mGlu2R expressed in HEK293 cells co-expressing Galpha15 assessed as decrease in glutamate-induced calcium mobilization preincubated for 2.3 mins followed by glutamate addition and measured after 1.7 mins by Fluo-4-AM dye based fluorescence assay
Sequence (P31421 whole entry): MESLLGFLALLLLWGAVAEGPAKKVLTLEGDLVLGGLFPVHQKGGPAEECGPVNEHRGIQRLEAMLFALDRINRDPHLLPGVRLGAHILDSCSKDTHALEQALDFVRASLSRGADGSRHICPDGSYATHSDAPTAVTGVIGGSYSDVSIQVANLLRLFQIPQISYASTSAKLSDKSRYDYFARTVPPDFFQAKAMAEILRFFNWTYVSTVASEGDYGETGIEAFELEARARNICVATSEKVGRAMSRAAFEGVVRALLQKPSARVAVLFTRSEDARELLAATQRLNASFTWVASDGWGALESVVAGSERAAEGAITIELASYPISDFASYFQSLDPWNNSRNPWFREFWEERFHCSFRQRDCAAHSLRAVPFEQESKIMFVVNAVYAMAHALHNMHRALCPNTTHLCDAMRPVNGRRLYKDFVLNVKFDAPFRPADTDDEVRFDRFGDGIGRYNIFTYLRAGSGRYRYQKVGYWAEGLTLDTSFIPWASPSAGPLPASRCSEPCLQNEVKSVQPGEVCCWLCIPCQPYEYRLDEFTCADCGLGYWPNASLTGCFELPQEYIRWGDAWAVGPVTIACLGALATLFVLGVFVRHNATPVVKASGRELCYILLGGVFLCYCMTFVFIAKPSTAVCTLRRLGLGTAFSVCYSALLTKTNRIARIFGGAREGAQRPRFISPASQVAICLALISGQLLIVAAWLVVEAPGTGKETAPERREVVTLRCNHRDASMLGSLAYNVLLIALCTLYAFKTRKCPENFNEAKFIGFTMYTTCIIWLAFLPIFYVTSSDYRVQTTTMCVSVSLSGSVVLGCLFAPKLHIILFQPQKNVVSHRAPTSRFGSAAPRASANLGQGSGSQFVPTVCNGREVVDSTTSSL
pIC50: −log10 of the molar value.
Returns one of T or F; T when pIC50 is >= 6.

Use these answered entries as a reference point.
NC(=O)c1cc(-c2ccc(F)cc2)c2sc(COc3ccnc(C(F)(F)F)c3)cc2n1 ... F
NC(=O)c1cc(-c2ccc(F)cc2)c2sc(COc3ccc(F)cc3)cc2n1 ... F
COc1ccc(-c2cc(C(N)=O)nc3cc(COc4cnc(C)nc4)sc23)cc1 ... T
[2H]C([2H])([2H])Oc1ccc(-c2cc(C(N)=O)nc3cc(COc4cnc(C)nc4)sc23)cc1 ... T
NC(=O)c1cc(-c2ccc(F)cc2)n2nc(COc3ccc(C(F)(F)F)nc3)cc2n1 ... F

Kindly determine if pIC50 recorded for NC(=O)c1cc(-c2ccc(F)cc2)n2nc(CCc3ccnc(C(F)(F)F)c3)cc2n1 is above or exactly 6.
T

Is reported pIC50 greater than or equal to 6 here: NC(=O)c1cc(-c2ccc(F)cc2)c2sc(COc3ccc(C(F)(F)F)nc3)cc2n1
F

* * *

assay: Volume of distribution at steady state in Sprague-Dawley rat at 1 mg/kg, iv by LC-MS/MS analysis; type: ADME, organism-based; conditions: in vivo, read-out: Vdss
quantityKind: Vd (L/kg)
Enter your answer as a number in L/kg; do not include the unit.

Return Vd for the following compound: NC(=O)c1cc(-c2ccc(F)cc2)n2nc(COc3ccnc(C(F)(F)F)c3)cc2n1
6.59

* * *

assay: Cmax in Sprague-Dawley rat brain at 10 mg/kg, ip by LC-MS/MS analysis; type: ADME, organism-based; design: dose 10 mg/kg, route intraperitoneal
quantityKind: Cmax (µM)
Write down the numeric answer in µM and omit the unit.

Input C[C@@H]1CN(Cc2cc3nc(C(N)=O)cc(-c4ccc(F)cc4)c3s2)C[C@H](C)O1 , output reported Cmax.
6.09

* * *

Listing of recorded Kp by entry.
test: Brain to plasma partition coefficient, Kp of the compound in rat; assay type: ADME; conditions: brain and plasma
Just the number.

Use the examples below as a reference point.
Cn1ccc(COc2cnc(C(N)=O)cc2-c2ccc(F)cc2)n1 ... 1.9
[11CH3]Oc1ccc(-c2cc(C(N)=O)nc3cc(CN4C(=O)CCC4=O)ccc23)c(F)c1 ... 0.3

From here, focus on the item given below.
Fill in reported Kp for this entry: C[C@@H]1CN(Cc2ccc3c(c2)c(=O)c(C(N)=O)cn3-c2ccc(F)cc2)C[C@H](C)O1
0.3

* * *

A collection of compounds and their measured fraction unbound
experiment: Fraction unbound in rat brain; format: ADME, tissue-based
# answer = number (no unit)

Here are 4 compounds together with their reported answers.
Cc1ccc(OCc2cc3nc(C(N)=O)cc(-c4ccc(F)cc4)c3s2)cn1 ... 0.003
COc1ccc(-c2cc(C(N)=O)nc3cc(COc4cnc(C)nc4)sc23)cc1 ... 0.003
NC(=O)c1cc(-c2ccc(F)cc2)n2nc(CCc3ccnc(C(F)(F)F)c3)cc2n1 ... 0.006
C[C@@H]1CN(Cc2cc3nc(C(N)=O)cc(-c4ccc(F)cc4)c3s2)C[C@H](C)O1 ... 0.005

Please find the next compound below.
Given the compound NC(=O)c1cc(-c2ccc(F)cc2)n2nc(COc3ccnc(C(F)(F)F)c3)cc2n1 , write its reported fraction unbound.
0.007

* * *

assay: Brain to plasma partition coefficient, Kp of the compound in Sprague-Dawley rat at 0.2 mg/kg, iv administered as cassette dose by LC-MS/MS analysis; assay type: ADME, organism-based; conditions: brain and plasma
Recorded Kp for the following molecules
Respond using a number only.

Input COc1ccc(-c2cc(C(N)=O)nc3cc(COc4cnc(C)nc4)sc23)cc1 , output reported Kp.
3.41

Let me know recorded Kp for Cc1ccc(OCc2cc3nc(C(N)=O)cc(-c4ccc(F)cc4)c3s2)cn1 , thanks.
7.99

Answer with reported Kp of C[C@@H]1CN(Cc2cc3nc(C(N)=O)cc(-c4ccc(F)cc4)c3s2)C[C@H](C)O1
5.67

Consider the molecule NC(=O)c1cc(-c2ccc(F)cc2)n2nc(COc3ccnc(C(F)(F)F)c3)cc2n1 . State its measured Kp.
4.04

* * *

assay: Unbound brain to plasma ratio in Sprague-Dawley rat at 0.2 mg/kg, iv administered as cassette dose by LC-MS/MS analysis; type: ADME, organism-based; details: brain and plasma, read-out: K(p,uu,brain)
// Kp uu lookup, one value per entry

# return recorded Kp uu for entry Cc1ncccc1OCc1cc2nc(C(N)=O)cc(-c3ccc(F)cc3)c2s1
< 0.4

Read the entry COc1ccc(-c2cc(C(N)=O)nc3cc(COc4ccnc(C(F)(F)F)c4)nn23)c(F)c1 and write its reported Kp uu.
0.4 to 0.6

Give Kp uu for C[C@@H]1CN(Cc2cc3nc(C(N)=O)cc(-c4ccc(F)cc4)c3s2)C[C@H](C)O1
0.52

Look up and report measured Kp uu for this entry: COc1ccc(-c2cc(C(N)=O)nc3cc(COc4ccc(C(F)(F)F)nc4)nn23)c(F)c1
0.4 to 0.6

* * *

experiment: Half life in Sprague-Dawley rat at 1 mg/kg, iv by LC-MS/MS analysis; type: ADME, organism-based; conditions: in vivo
quantityKind: half-life (h)
Report only the number, with the unit h understood.

Answer with the recorded half-life of NC(=O)c1cc(-c2ccc(F)cc2)n2nc(COc3ccnc(C(F)(F)F)c3)cc2n1 only.
5.53

* * *

target: Metabotropic glutamate receptor 3 (Homo sapiens); assay: Negative allosteric modulation of mGlu3R (unknown origin)
Sequence (Q14832 whole entry): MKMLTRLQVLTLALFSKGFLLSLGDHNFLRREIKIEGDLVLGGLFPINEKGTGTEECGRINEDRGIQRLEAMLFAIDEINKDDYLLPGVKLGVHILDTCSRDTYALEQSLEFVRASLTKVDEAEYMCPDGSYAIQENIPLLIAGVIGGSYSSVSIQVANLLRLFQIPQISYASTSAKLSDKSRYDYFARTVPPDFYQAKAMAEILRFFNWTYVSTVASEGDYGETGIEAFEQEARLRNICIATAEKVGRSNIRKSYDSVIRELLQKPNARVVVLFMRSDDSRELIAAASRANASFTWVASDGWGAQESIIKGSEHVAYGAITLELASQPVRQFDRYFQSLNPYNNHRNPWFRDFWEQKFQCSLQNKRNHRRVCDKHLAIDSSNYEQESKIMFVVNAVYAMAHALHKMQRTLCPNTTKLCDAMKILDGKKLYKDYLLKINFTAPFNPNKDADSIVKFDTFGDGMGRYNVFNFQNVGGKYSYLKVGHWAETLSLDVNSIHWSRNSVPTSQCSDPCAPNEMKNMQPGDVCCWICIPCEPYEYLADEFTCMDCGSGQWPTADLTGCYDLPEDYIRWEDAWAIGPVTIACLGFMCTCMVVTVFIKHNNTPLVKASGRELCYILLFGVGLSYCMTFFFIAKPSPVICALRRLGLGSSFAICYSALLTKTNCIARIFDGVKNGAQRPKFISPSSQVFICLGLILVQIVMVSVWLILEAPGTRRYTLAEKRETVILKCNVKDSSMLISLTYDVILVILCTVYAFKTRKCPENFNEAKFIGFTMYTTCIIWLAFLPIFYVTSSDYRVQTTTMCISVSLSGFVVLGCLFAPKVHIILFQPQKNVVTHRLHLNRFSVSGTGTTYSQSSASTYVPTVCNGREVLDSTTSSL
# IC50 annotations

See these solved cases before continuing.
Cn1ccc(COc2cnc(C(N)=O)cc2-c2ccc(F)cc2)n1 ... > 30 µM
[11CH3]Oc1ccc(-c2cc(C(N)=O)nc3cc(CN4C(=O)CCC4=O)ccc23)c(F)c1 ... > 30 µM

Next compound, IC50 to be filled in.
Given the compound C[C@@H]1CN(Cc2ccc3c(c2)c(=O)c(C(N)=O)cn3-c2ccc(F)cc2)C[C@H](C)O1 , write its reported IC50.
> 30 µM

* * *

molecular target: UniProtKB P31421; assay: Negative allosteric modulation of rat mGlu2R expressed in HEK293 cells co-expressing Galpha15 assessed as decrease in glutamate-induced calcium mobilization preincubated for 2.3 mins followed by glutamate addition and measured after 1.7 mins by Fluo-4-AM dye based fluorescence assay
quantityKind: IC50 (µM)
// return numeric value only (unit: µM, not printed)

Observe how each entry below is paired with its result.
COc1ccc(-c2cc(C(N)=O)nc3cc(CN4CCOCC4)sc23)cc1 ... 2.51
NC(=O)c1cc(-c2ccc(F)cc2)c2sc(CN3CCCCC3)cc2n1 ... 1.74
Cc1ncc(OCc2cc3nc(C(N)=O)cc(-c4ccc(F)cc4)c3s2)cn1 ... 0.589
C[C@@H]1CN(Cc2cc3nc(C(N)=O)cc(-c4ccc(F)cc4)c3s2)C[C@H](C)O1 ... 0.55
COc1ccc(-c2cc(C(N)=O)nc3cc(COc4ccnc(C(F)(F)F)c4)nn23)c(F)c1 ... 0.148

// next entry
Please indicate recorded IC50 of NC(=O)c1cc(-c2ccc(F)cc2)n2nc(CCc3cccnc3)cc2n1 measured with UniProtKB P31421.
1.74

Taken from ChEMBL document CHEMBL4308859.
